Target: T1, 4H55-AA
T1 chain: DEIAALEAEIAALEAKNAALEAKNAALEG
Assay: two-hybrid library CCmax;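 also: natural log of median RNA to DNA barcode read ratio; higher means stronger binding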
Conditions: mean of both orientations
interaction score below -1 gives 0.0; interaction score at or above it gives 1.0.

> print(dat)
                                     binder  qualitative.label
1  DENAALEAEIAALEAKNAALKAEIAALKG [4H1082-AA]                0.0
2  DEIAALEAKIAALKAKNAALEAEIAALEG [4H369-AA]                1.0
3  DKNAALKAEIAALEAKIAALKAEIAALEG [4H3625-AA]                0.0
4  DKIAALKAEIAALEAKIAALKAKNAALKG [4H2608-AA]                1.0
5  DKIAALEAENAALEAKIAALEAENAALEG [4H2211-AA]                0.0
6  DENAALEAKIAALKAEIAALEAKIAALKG [4H1350-AA]                0.0
7  DKNAALKAEIAALKAEIAALKAKNAALKG [4H3664-AA]                0.0
